Some compounds, each annotated with its measured TGI.
# System: NCI-H460 lung
# Experiment: NCI tumour cell line growth inhibition, 48 h
Report the value in µM with no unit label.

Some solved cases for reference:
INSERT INTO results (compound, experimental_value) VALUES
  ('CN(CCCCCl)P(=O)(OCC1=CC(=O)c2ccccc2C1=O)OC[C@H]1O[C@@H](n2cc(F)c(=O)[nH]c2=O)C[C@@H]1O (stereo partly drawn)', 7.9),
  ('CCOC(=O)/C=C(/C(=O)OCC)n1cc(C)c(=O)n(/C(=C/C(=O)OCC)C(=O)OCC)c1=O', 37.1),
  ('CC1=C2O[C@]3(O)C=C2C(=C(O)C1=O)[C@@H]1O[C@H](CC[C@H](C)/C=C(\C)C[C@@H](C)C[C@@H]3C)[C@H](C)[C@H](O)[C@H]1C', 1.82),
  ('c1ccc2cc(C[n+]3ccn(CCCCCCCCCCCCn4cc[n+](Cc5ccc6ccccc6c5)c4)c3)ccc2c1', 2.96),
  ('CC(C)(Cl)C(Br)CCC(C)(Br)C(Br)CBr (stereo not drawn)', 31.1);

Consider the record given below.
Incoming: Value lookup for TGI; key = `COc1cc2c(cc1OCCCCCn1c(-c3ccc(OCc4ccccc4)cc3)nc3cc(N4CCOCC4)ccc31)N=C[C@@H]1CCCN1C2=O`
Outgoing: 5.93

----------
# Tested on: MDA-MB-435
# Experiment: NCI tumour cell line growth inhibition, 48 h
We use 4 µM as the dividing line for TGI: on or above the line is fulfilled, below is not fulfilled.

INSERT INTO results (compound, discrete_label) VALUES
  ('COc1ccc(CC(C)=C(c2ccc(OCCN3CCCCCC3)cc2)c2ccc(OCCN3CCCCCC3)cc2)cc1', 'not fulfilled');

Incoming: Does the reported TGI for `c1ccc2c(c1)SC1=C(SC(=C3SC4=C(S3)Sc3ccccc3S4)S1)S2` fall at or above the 4 µM mark?
Outgoing: fulfilled

Incoming: Okay, and `COc1cc2ccnc(C=O)c2cc1OC` ?
Outgoing: fulfilled

----------
Some molecules, each annotated with its measured GI50.
# Tested on: SK-MEL-2 melanoma
# Experiment: NCI tumour cell line growth inhibition, 48 h

INSERT INTO measurements (molecule, experimental_value) VALUES
  ('COc1cc2c3c(n(CCCNCCNCCN)c(=O)c2cc1OC)-c1cc2c(cc1C3=O)OCO2', '6.94 µM'),
  ('COc1ccc(-c2cc(-c3ccccc3)nc(SCCCC(=O)NO)n2)cc1OC', '1.76 µM'),
  ('NC1CCCCC1N.Nc1c(N=Nc2ccc(-c3ccc(N=Nc4cc(S(=O)(=O)[O-])c5ccccc5c4N)cc3)cc2)cc(S(=O)(=O)[O-])c2ccccc12.[OH3+].[OH3+].[Pt+4]', '45.6 µM'),
  ('CNC(=O)NCC1OC(n2cnc3c(NC(=O)Nc4ccccc4)ncnc32)C(O[Si](C)(C)C(C)(C)C)C1CC(=O)N(C)OC (stereo not drawn)', '8.08 µM'),
  ('N#Cc1c(-c2ccccc2)cc(-c2ccccc2)n(CCCC(=O)NO)c1=O', '2.02 µM');

Incoming: Value lookup for GI50; key = `O=C(COc1nc2ccccc2nc1-c1ccccc1)Nc1ccc(Cl)cc1`
Outgoing: 15.1 µM

Incoming: Okay, and CCO/C=N/C1=C(C#N)C(c2ccc(OC)cc2)c2sc3c(F)cccc3c2O1 (stereo not drawn) ?
Outgoing: 3.8 µM

Incoming: Okay, and `COc1cccc(/C=N/[N-]C(=O)c2ccncc2)c1[O-].[Ni+2].[OH3+]` ?
Outgoing: > 100 µM
